test: Molar enthalpy of transition or fusion; conditions: Crystal 3; DSC
quantity: Molar enthalpy of transition or fusion (kcal/mol)
Form entry: value (kcal/mol) — number only.

Quick check: Molar enthalpy of transition or fusion of O=C(O)CCCCCC(=O)O ?
0.359

Same for O=C(O)CCCCCCC(=O)O
0.478

Try O=C(O)CCCCCCCC(=O)O next.
0.00239

Note, next up: O=C(O)CCCCCCCCCCC(=O)O
0.0143

====

Exercise: for every item that follows, state its recorded Molar enthalpy of transition or fusion.
assay: Molar enthalpy of transition or fusion; details: Crystal 1; DSC
Could you give me the number in kcal/mol? Just the number is fine.

Which Molar enthalpy of transition or fusion reading was recorded for the compound O=C(O)CCCCCCCCCCCCCCC(=O)O [hexadecanedioic acid] ?
12.5

What would you report for O=C(O)CCCCCCCCCCC(=O)O [1,12-dodecanedioic acid] ?
11.9

Subsequent entry: O=C(O)CCCCCCCC(=O)O [1,9-nonanedioic acid]
7.1

Proceed to O=C(O)CCCCCCCCCC(=O)O [1,11-undecanedioic acid]
9.85

Next compound: O=C(O)CCCC(=O)O [1,5-pentanedioic acid]
4.49

Next compound up: O=C(O)CCCCCC(=O)O [1,7-heptanedioic acid]
5.66

Another: O=C(O)CCCCC(=O)O [1,6-hexanedioic acid]
8.05

// next record O=C(O)CCCCCCCCC(=O)O [1,10-decanedioic acid]
11.1

And the next one, O=C(O)CCCCCCCCCCCC(=O)O [tridecanedioic acid] ?
11.8

Can you check O=C(O)CCCCCCC(=O)O [1,8-octanedioic acid] next?
7.34

Can you handle O=C(O)CCCCCCCCCCCCC(=O)O [1,12-dodecanedicarboxylic acid] next?
13.5

Please do the same for O=C(O)CCC(=O)O [butanedioic acid] as well.
8.13

====

conditions: Crystal 1; DTA
quantity: Triple point temperature (K)
Dear colleague, please return just the value in K, with no unit written.

If you can, please state the reported Triple point temperature value of O=C(O)CCCCC(=O)O .
419

Please answer likewise for O=C(O)CCCCCCC(=O)O
413.2

Also check O=C(O)CCCCCCCCCCCCCCC(=O)O
395.4

Try the compound O=C(O)CCCCCCCCCCCC(=O)O
386.3

Another: O=C(O)CCC(=O)O
455.2

Please do the same for O=C(O)CCCCCCCCCC(=O)O as well.
380.1

Query O=C(O)CCCC(=O)O next
363.9

Try this compound next: O=C(O)CCCCCCCCC(=O)O
403.9

O=C(O)CCCCCCCC(=O)O ?
372.4

Next record, please: O=C(O)CCCCCCCCCCC(=O)O
400.3

Same thing, different compound: O=C(O)CCCCCCCCCCCCC(=O)O
397.3

Then what about the compound O=C(O)CCCCCC(=O)O ?
368.2

====

details: Crystal 3; DTA
quantity: Triple point temperature (K)
All answers are understood in K, so give the number only.

Consider the compound shown here: O=C(O)CCCCCC(=O)O What is its recorded Triple point temperature?
337.7

Quick one: O=C(O)CCCCCCCC(=O)O
330.6

And O=C(O)CCCCCCCCCCC(=O)O ?
359.5

Likewise for O=C(O)CCCCCCC(=O)O ?
355.9

Taken from the NIST ThermoML archive (doi:10.1016/j.jct.2004.12.011).
